Test Readout: IC50 (µM)
Give your result in µM as a bare value.

Request body: readout IC50, system Tet(56-2) (Legionella clemsonensis), query Cc1c2c(c(O)c3c(O)cccc13)C(=O)[C@]1(O)C(=O)C(C(N)=O)=C(O)[C@@H](N(C)C)[C@@H]1C2 [ATC, anhydrotetracycline] . Return the value. 6.4
